- Tested on: MDA-MB-231
- assay notes: NCI tumour cell line growth inhibition, 48 h
Calls of active or inactive are those of the source. No stated cut-off is given here; in the data, active = GI50 up to about 1.1 µM and inactive = higher.

compound: O=C1NC(=S)NC(=O)C1C(c1ccccc1[N+](=O)[O-])C1C(=O)NC(=S)NC1=O.c1ccncc1
GI50: > 100 µM (inactive)
//
compound: Cc1ccc2nc3c(=O)[nH]c(=O)nc-3n(C)c2c1C
GI50: > 100 µM (inactive)
//
compound: CSc1c(C#N)c(O)n(-c2ccc(C)cc2)c(=O)c1C(C)=O
GI50: > 100 µM (inactive)
//
compound: O=C(Nc1ccc2[nH]c(C(=O)N3CC(CCl)c4ccc([N+](=O)[O-])cc43)cc2c1)c1cc2ccccc2o1 (centres undefined)
GI50: > 1100 µM (inactive)

Just for reference, ChEMBL document CHEMBL1201862 is where these values come from.
